# Target entity: human (α4)3(β2)2 nAChR (Homo sapiens, UniProt P17787+P43681)
# Sequence (P43681 27-627): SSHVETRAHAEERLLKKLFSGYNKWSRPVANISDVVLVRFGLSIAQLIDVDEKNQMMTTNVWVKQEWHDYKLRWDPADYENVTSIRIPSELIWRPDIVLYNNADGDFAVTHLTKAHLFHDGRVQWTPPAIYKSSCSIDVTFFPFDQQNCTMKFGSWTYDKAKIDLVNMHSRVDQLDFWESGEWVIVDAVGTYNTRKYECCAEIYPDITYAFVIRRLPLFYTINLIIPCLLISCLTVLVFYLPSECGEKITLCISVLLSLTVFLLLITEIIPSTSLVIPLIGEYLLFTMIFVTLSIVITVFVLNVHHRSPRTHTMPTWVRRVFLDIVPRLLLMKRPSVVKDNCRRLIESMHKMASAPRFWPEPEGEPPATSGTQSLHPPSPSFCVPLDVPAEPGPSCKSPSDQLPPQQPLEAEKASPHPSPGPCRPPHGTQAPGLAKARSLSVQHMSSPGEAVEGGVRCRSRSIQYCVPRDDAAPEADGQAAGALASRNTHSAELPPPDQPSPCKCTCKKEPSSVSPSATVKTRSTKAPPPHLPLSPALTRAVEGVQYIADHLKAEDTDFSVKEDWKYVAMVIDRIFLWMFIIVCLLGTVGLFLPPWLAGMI
# Sequence (P17787 26-502): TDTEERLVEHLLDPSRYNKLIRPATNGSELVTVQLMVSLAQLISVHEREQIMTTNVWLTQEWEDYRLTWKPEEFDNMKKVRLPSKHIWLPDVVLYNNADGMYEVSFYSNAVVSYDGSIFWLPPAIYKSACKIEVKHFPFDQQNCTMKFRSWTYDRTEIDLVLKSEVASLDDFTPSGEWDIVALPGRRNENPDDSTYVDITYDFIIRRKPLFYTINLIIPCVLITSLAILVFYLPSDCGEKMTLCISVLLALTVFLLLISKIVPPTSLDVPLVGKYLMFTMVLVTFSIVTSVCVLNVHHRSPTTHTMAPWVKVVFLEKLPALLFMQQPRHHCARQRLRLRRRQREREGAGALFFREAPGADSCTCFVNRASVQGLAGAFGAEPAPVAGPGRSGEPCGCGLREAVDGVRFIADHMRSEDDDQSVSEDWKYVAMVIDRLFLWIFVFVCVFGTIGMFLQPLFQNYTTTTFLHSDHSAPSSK
# Test summary: Two-electrode voltage-clamp recording, (α4)3(β2)2 nAChRs expressed in Xenopus oocytes (α4:β2 cRNA 10:1)
# Condition parameters: read-out: (α4)3(β2)2 nAChR (% control response ACh)
Property: remaining activity at 100 µM (%)

Compound: C[C@@H]1CN(c2c(F)c(N)c3c(=O)c(C(=O)O)cn(C4CC4)c3c2F)C[C@H](C)N1 [sparfloxacin]
Target entity: human (α4)3(β2)2 nAChR (Homo sapiens, UniProt P17787+P43681)
remaining activity at 100 µM (%): 58.4
//
Compound: CCn1cc(C(=O)O)c(=O)c2cc(F)c(N3CCNCC3)cc21 [norfloxacin]
Target entity: human (α4)3(β2)2 nAChR (Homo sapiens, UniProt P17787+P43681)
remaining activity at 100 µM (%): 54.1
//
Compound: CCN1CCN(c2cc3c(cc2F)c(=O)c(C(=O)O)cn3C2CC2)CC1 [enrofloxacin]
Target entity: human (α4)3(β2)2 nAChR (Homo sapiens, UniProt P17787+P43681)
remaining activity at 100 µM (%): 64.8
//
Compound: CN1CCN(c2cc3c(cc2F)c(=O)c(C(=O)O)cn3-c2ccc(F)cc2)CC1 [difloxacin]
Target entity: human (α4)3(β2)2 nAChR (Homo sapiens, UniProt P17787+P43681)
remaining activity at 100 µM (%): 57.2
//
Compound: CCn1cc(C(=O)O)c(=O)c2cc(F)c(N3CCNCC3)nc21 [enoxacin]
Target entity: human (α4)3(β2)2 nAChR (Homo sapiens, UniProt P17787+P43681)
remaining activity at 100 µM (%): 74.6
//
Compound: CCn1cc(C(=O)O)c(=O)c2cc3c(cc21)OCO3 [oxolinic acid]
Target entity: human (α4)3(β2)2 nAChR (Homo sapiens, UniProt P17787+P43681)
remaining activity at 100 µM (%): 60.4
//
Compound: CCn1nc(C(=O)O)c(=O)c2cc3c(cc21)OCO3 [cinoxacin]
Target entity: human (α4)3(β2)2 nAChR (Homo sapiens, UniProt P17787+P43681)
remaining activity at 100 µM (%): 60.4

----------
# Target entity: human (α4)2(β2)3 nAChR (Homo sapiens, UniProt P17787+P43681)
# Construct: expressed in transfected cells; host or cells: Xenopus laevis oocytes (cRNA injection)
# Sequence (P43681 27-627): as the sequence (P43681 27-627) above
# Sequence (P17787 26-502): as the sequence (P17787 26-502) above
# Test summary: Two-electrode voltage-clamp recording, (α4)2(β2)3 nAChRs expressed in Xenopus oocytes (α4:β2 cRNA 1:10)
# Format: cell-based
# Condition parameters: read-out: (α4)2(β2)3 nAChR (% control response to ACh)
Property: remaining activity at 100 µM (%)

Solved cases (5 shown):
Molecule smiles: CCn1nc(C(=O)O)c(=O)c2cc3c(cc21)OCO3
remaining activity at 100 µM (%): 58.2

Molecule smiles: CCn1cc(C(=O)O)c(=O)c2cc(F)c(N3CCNCC3)nc21
remaining activity at 100 µM (%): 23.5

Molecule smiles: CCn1cc(C(=O)O)c(=O)c2cc(F)c(N3CCNCC3)cc21
remaining activity at 100 µM (%): 13

Molecule smiles: CCN1CCN(c2cc3c(cc2F)c(=O)c(C(=O)O)cn3C2CC2)CC1
remaining activity at 100 µM (%): 13.2

Molecule smiles: CCn1cc(C(=O)O)c(=O)c2cc3c(cc21)OCO3
remaining activity at 100 µM (%): 59.5

[I] CN1CCN(c2cc3c(cc2F)c(=O)c(C(=O)O)cn3-c2ccc(F)cc2)CC1
[II] C[C@@H]1CN(c2c(F)c(N)c3c(=O)c(C(=O)O)cn(C4CC4)c3c2F)C[C@H](C)N1
Asked: Parameter check: reported remaining activity at 100 µM is higher for which label, I or II ? Answer with the label corresponding to your selection.
Given back: I
(I: 39.9%, II: 17.4%)
